Test system: Epidermal growth factor receptor (Homo sapiens), P00533 [L858R]
Sequence (P00533 whole entry L858R): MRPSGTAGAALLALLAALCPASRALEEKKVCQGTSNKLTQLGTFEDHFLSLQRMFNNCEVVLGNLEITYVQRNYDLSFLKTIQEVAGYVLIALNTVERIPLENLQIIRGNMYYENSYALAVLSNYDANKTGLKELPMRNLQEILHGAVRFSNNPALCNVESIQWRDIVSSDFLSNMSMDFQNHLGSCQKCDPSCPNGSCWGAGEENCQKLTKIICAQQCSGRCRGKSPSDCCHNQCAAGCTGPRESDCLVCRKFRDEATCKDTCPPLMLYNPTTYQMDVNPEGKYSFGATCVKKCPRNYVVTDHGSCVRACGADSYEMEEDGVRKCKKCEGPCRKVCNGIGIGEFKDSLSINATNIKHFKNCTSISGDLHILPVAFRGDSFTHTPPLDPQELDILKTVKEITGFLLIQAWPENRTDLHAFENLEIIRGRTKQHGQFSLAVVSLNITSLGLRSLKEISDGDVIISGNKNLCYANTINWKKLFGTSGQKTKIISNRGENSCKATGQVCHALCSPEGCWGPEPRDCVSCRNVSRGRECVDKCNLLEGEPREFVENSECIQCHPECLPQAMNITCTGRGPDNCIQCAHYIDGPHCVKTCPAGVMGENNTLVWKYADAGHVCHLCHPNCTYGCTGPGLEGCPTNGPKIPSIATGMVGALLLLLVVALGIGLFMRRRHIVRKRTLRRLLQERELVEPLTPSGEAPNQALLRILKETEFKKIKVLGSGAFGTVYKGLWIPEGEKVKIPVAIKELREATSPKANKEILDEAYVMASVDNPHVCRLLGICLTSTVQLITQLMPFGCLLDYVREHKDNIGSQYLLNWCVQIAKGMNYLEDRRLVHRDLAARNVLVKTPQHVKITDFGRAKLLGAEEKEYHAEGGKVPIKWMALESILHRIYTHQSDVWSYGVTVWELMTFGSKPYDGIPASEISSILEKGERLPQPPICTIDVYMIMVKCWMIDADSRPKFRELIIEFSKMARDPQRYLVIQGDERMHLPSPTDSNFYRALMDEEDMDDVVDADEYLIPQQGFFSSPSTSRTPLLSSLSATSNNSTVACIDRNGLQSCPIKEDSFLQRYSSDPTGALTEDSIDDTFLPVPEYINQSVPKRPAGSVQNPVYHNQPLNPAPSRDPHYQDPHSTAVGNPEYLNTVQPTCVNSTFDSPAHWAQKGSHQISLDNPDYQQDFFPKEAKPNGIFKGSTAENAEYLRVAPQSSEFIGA
Conditions: at 0.1 µM
Answer each item with its documented inhibition.
Answers are plain numbers, in %.

Parameters: items (list). Returns: inhibition for each item.
1. Cc1ccc(C(=O)NC2CCC2)cc1-c1ccc(C(=O)NCC2CC2)cc1
2. c1ccc(Oc2ccc(Nc3ncc(-c4ccccc4)o3)cc2)cc1

Reply:
3.77
1.22

###

Target: Cyclin-dependent kinase 1 (Homo sapiens) (UniProt P06493);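 further: mean percent inhibition of the CDK1/cyclin B complex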
Sequence (P06493 whole entry, looked up): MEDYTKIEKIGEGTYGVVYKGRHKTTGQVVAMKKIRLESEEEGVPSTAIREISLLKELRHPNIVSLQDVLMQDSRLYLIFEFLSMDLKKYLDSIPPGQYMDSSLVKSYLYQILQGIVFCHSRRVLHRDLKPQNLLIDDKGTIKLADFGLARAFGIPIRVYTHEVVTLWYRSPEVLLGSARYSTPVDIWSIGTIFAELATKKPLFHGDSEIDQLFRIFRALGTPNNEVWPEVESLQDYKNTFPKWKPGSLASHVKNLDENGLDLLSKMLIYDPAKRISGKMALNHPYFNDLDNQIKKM
Details: at 1 µM
Record form. Attribute: inhibition. Fill in for each entry.
Answers are plain numbers, in %.

The following molecules have reported results that may help.
[[record]]
molecule = "CN(c1ccc(NC(=O)Nc2c(Cl)cccc2Cl)cc1)c1ccnc(Nc2cccc(CS(C)(=O)=O)c2)n1"
value_measured = 3.72

[[record]]
molecule = "CN1CCN(CCCNc2nc3ccc(Oc4ccc(NC(=O)Nc5cc(C(F)(F)F)ccc5F)cc4)cc3[nH]2)CC1"
value_measured = -3.79

[[record]]
molecule = "Clc1ccc(CNc2nccc(-c3cnn4ncccc34)n2)cc1"
value_measured = 36.3

[[record]]
molecule = "Fc1ccc(-c2ncn(C3CCNCC3)c2-c2ccnc(Oc3ccc4c(c3)OCO4)n2)cc1"
value_measured = 1.39


Parameter requested: inhibition. Apply to each item below.
1. CN(C)CCCNc1nccc(-c2c(-c3ccc(F)cc3)nn3cc(C(F)(F)F)ccc23)n1
2. NS(=O)(=O)c1ccc(N/N=C2\C(=O)Nc3ccc(-c4cnco4)cc32)cc1
3. NC(=O)c1cc(-c2ccc(F)cc2)cc(-c2ccncc2)c1N
4. O=C1Nc2ccc(I)cc2C1=Cc1cc(Br)c(O)c(Br)c1
5. COc1ccc2cc(-c3c(-c4ccncc4)nc(-c4ccc([S+](C)[O-])cc4C)n3C)ccc2c1 (centres undefined)

Reply:
1.74
66.8
0.73
1.43
3.25

###

Molecular target: SRSF protein kinase 3 (Homo sapiens);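 further: mean of replicate inhibition values against MSSK1 kinase, profiled within the GSK PKIS kinase inhibitor set screen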
Details: at 0.1 µM
assay_readout: inhibition
Dear colleague, please send the value followed by its unit.

[[record]]
structure_as_smiles = "C[C@@H](Oc1cc(-n2cnc3ccc(OC4CCN(C)CC4)cc32)sc1C(N)=O)c1ccccc1Cl"
assay_readout = "inhibition"
value_measured = "-2.03%"

[[record]]
structure_as_smiles = "CCS(=O)(=O)c1ccc(OC)c(Nc2ncc(-c3cccc(-c4ccccc4F)c3)o2)c1"
assay_readout = "inhibition"
value_measured = "0.74%"

[[record]]
structure_as_smiles = "COc1ccc2cc(-c3c(-c4ccncc4)nc(-c4ccc(S(C)(=O)=O)cc4C)n3C)ccc2c1"
assay_readout = "inhibition"
value_measured = "-1.96%"

[[record]]
structure_as_smiles = "C[C@@H](Oc1cc(-n2cnc3ccc(OCC4CCN(C)CC4)cc32)sc1C(N)=O)c1ccccc1Cl"
assay_readout = "inhibition"
value_measured = "0.89%"

[[record]]
structure_as_smiles = "CN(C)CCOc1ccc(-c2cc(-c3ccc4c(c3)CCC4=NO)c(-c3ccncc3)o2)cc1"
assay_readout = "inhibition"
value_measured = "-6.42%"

[[record]]
structure_as_smiles = "CN(C)c1ccc2c(c1)/C(=C/Nc1ccc(S(N)(=O)=O)cc1)C(=O)N2"
assay_readout = "inhibition"
value_measured = "-1.98%"

[[record]]
structure_as_smiles = "O=C1NC(=O)C(c2cccc(Cl)c2)=C1Nc1ccc(Cl)c(C(=O)O)c1"
assay_readout = "inhibition"
value_measured = "-2.79%"

[[record]]
structure_as_smiles = "Fc1ccc(-c2ncn(CCCN3CCOCC3)c2-c2ccncc2)cc1"
assay_readout = "inhibition"
value_measured = "-0.25%"


Alright, here's another compound for you.
Task item: Please report the recorded inhibition for CN(c1ccc(NC(=O)Nc2c(Cl)cccc2Cl)cc1)c1ccnc(Nc2cccc(CS(C)(=O)=O)c2)n1 .
Reply: 0.97%
